Tested on: HCT-15 colon
method.notes: NCI-60 one-dose screen, 48 h (100 = growth as untreated, 0 = no growth, -100 = all killed)
experimental.parameters: 10 µM unless noted
The panel holds about 83,000 compounds, 20% with a hit somewhere; the sample as a whole holds those more often.
result.type: growth (%)

molecule=CN(CCCCCCCCNc1ccnc2ccccc12)Cc1ccc(-c2ccc(-c3ccc(C#N)cc3)s2)cc1 test_result=-82.1
molecule=C=C(C=O)[C@@H]1CC=C(C=O)CC1 test_result=-12
molecule="C=C1c2c(C)nn(-c3ccc(NC(C)=O)cc3)c2N(C)C23CC1C1(C)c4c(C)nn(-c5ccc(NC(C)=O)cc5)c4N(C)C(C)(CC12)C3 (configuration not stated)" test_result=11
molecule=OCCCCc1nccc2c1[nH]c1ccccc12 test_result=104
molecule=CCCCOc1ccc(NC(=O)n2nc(N=NN(C)C)c3ccc(Cl)cc32)cc1 test_result=105
molecule=CCCCCCNCc1cc(C(C)(C)C)cc(CNCCCCCC)c1O test_result=-59.6
molecule=Cc1cc(C)on1 test_result=105

* * *

Test system: CCRF-CEM leukemia
method.notes: NCI-60 one-dose screen, 48 h (100 = growth as untreated, 0 = no growth, -100 = all killed)
experimental.parameters: 10 µM unless noted
The panel holds about 83,000 compounds, 20% with a hit somewhere; the sample as a whole holds those more often.
Answer not satisfied if growth is under 20%, and satisfied if it is 20% or more.

compound=CC(=O)c1sc(-c2ccccc2)cc1N class_label=satisfied
compound=NC(=S)c1csc(CCNC(=O)c2ccccc2)n1 class_label=satisfied
compound=CCOC(=O)c1c(C)nc2c(c1N)/C(=C/c1cc(OC)c(OC)c(OC)c1)C(=O)N2c1ccc(OC)cc1 class_label="not satisfied"
compound="O=C(/C=C/C12c3ccccc3C(c3ccccc31)C1C(=O)N(c3ccc(Cl)cc3)C(=O)C12)c1ccccn1 (configuration not stated)" class_label="not satisfied"
compound=Nc1ccc(CCCCc2ccccc2)c(Cl)c1 class_label=satisfied
compound=N#Cc1cnn2c(-c3ccc(Cl)cc3)nc(NC3CC3)nc12 class_label=satisfied
compound="COc1cccc(CCC2CCCN(c3cc(C)nc(N)n3)C2)c1 (configuration not stated)" class_label=satisfied
compound="OC(CBr)c1ccnc2ccccc12 (configuration not stated)" class_label=satisfied
compound=c1ccc2[nH]c(SSc3nc4ncncc4[nH]3)nc2c1 class_label=satisfied
compound=CNCCNc1nc2ccccc2c2c(=O)c3cc(F)ccc3oc12 class_label=satisfied
compound=NC(=O)c1c(NC(=O)c2ccc(C(F)(F)F)cc2Cl)sc2c1CCC(=O)C2 class_label="not satisfied"
compound=COc1cc2c(cc1OC)-c1ccc3cc4c(cc3c1N(CCN(C)C)C2)OCO4 class_label="not satisfied"

* * *

Test system: HCT-15 colon
method.notes: NCI-60 one-dose screen, 48 h (100 = growth as untreated, 0 = no growth, -100 = all killed)
experimental.parameters: 10 µM unless noted
Compounds without any hit were thinned out: in the full panel of roughly 83,000, 20% have a hit.
// assign condition met if growth falls strictly below 80%, else condition not met (ties count as condition not met)

compound=COc1ccc(-c2cc(-c3ccc(Nc4nc(Nc5ccccc5)nc(Nc5ccc(Cl)cc5)n4)cc3)nc(N)c2C#N)cc1 tgt="HCT-15 colon" class_label="condition met"
compound=COc1ccc(/C(C)=C(\c2ccc(Cl)cc2)c2ccc(OCCN(C)C)cc2)cc1F tgt="HCT-15 colon" class_label="condition met"
compound="O=C1CSC(c2ccc(O)cc2)N1c1nnc(Cn2cnnc2)o1 (stereo not drawn)" tgt="HCT-15 colon" class_label="condition not met"
compound=CC(=O)c1cc2c(o1)C(=O)c1ccccc1C2=O tgt="HCT-15 colon" class_label="condition met"
compound=Cc1nc(-c2ccccc2)cc2c(O)c(C(=O)N/N=C/c3ccc(N(C)C)cc3)[nH]c(=O)c12 tgt="HCT-15 colon" class_label="condition not met"
compound="O=C1N(c2ccccc2)C(=S)N[C@]12[C@H](c1ccccc1)C1CCCN1[C@]21C(=O)NC2C=CC(Cl)=C[C@H]21 (stereo partly drawn)" tgt="HCT-15 colon" class_label="condition not met"
compound=CC(C)N(CCOC(=O)Nc1ccccc1Cl)C(C)C tgt="HCT-15 colon" class_label="condition not met"
compound=Oc1[nH]c2ccccc2c1/C=c1/cc2c(c(-c3ccc(F)cc3)n1)=Nc1ccccc1-2 tgt="HCT-15 colon" class_label="condition met"
compound="O=C1c2ccccc2C2(c3ccc(O)cc3)c3ccccc3Oc3cccc1c32 (stereo not drawn)" tgt="HCT-15 colon" class_label="condition met"
compound=Cc1nc(Nc2ccccn2)sc1C(=O)/C=C/c1ccc(Br)cc1 tgt="HCT-15 colon" class_label="condition met"
compound=CCn1c(Sc2nnc(NC(C)=O)s2)nc2c1c(=O)n(C)c(=O)n2C tgt="HCT-15 colon" class_label="condition not met"
compound="OC(c1cccc(OCc2ccccc2)c1)c1nnc(-c2ccccc2)o1 (stereo not drawn)" tgt="HCT-15 colon" class_label="condition not met"
compound=Cc1cnc(Nc2ccc(N3CCN(C)CC3)cc2)nc1Nc1ccc(Cl)c(NS(=O)(=O)C(C)(C)C)c1 tgt="HCT-15 colon" class_label="condition met"
compound=O=C1/C(=C/c2ccc([N+](=O)[O-])cc2)COc2ccc(O)c(O)c21 tgt="HCT-15 colon" class_label="condition met"
compound=CCCCCCCCCCCCCCCCCC1=NCCN1C(=O)OCCO tgt="HCT-15 colon" class_label="condition met"
compound=Cc1cc(C(c2ccccc2)c2ccccc2)ccc1NS(=O)(=O)c1ccccc1 tgt="HCT-15 colon" class_label="condition not met"
compound=O=C1N/C(=N/O)S/C1=C/c1cn(-c2ccccc2)nc1-c1ccccc1 tgt="HCT-15 colon" class_label="condition not met"

* * *

Test system: A498 renal
method.notes: NCI-60 one-dose screen, 48 h (100 = growth as untreated, 0 = no growth, -100 = all killed)
experimental.parameters: 10 µM unless noted
Method: Growth inhibition of the A498 human tumor cell line is measured as a screen for anti-cancer activity. Cells are grown in 96 well plates and exposed to the test compound for 48 hours. Compounds are tested at a single concentration, which is 10^-5 M for most compounds. The reported endpoint is percent growth (GI% or GIPRCNT), where numbers from 0 - 100% represent growth inhibition, and numbers from -100% - 0 represent cell death. For example, a value of 40 represents 60% growth inhibition. […]
About 83,000 compounds went through this panel and 20% of them were active in at least one assay; those are over-represented in the sample as a whole.
Measured growth by item
result.type: growth (%)

compound="CC(c1ccc(-n2cccn2)cc1)c1cnc(N2CCc3ccc(C(N)=O)cc3C2)s1 (stereo not given)" tgt="A498 renal" test_result=81
compound=COc1cccc(/C=C2\COc3ccc(O)cc3C2=O)c1OC tgt="A498 renal" test_result=90.7
compound=CCCCCCCCCCCCCCCCCC1=NCCN1C(=O)OCCO tgt="A498 renal" test_result=89.1
compound=COc1ccc(Oc2nc(Nc3ccc(N4CCOCC4)nc3)ncc2NC(=O)c2cc(OC)cc(OC)c2)cc1 tgt="A498 renal" test_result=53.7
compound=CC(=O)Nc1ccc(-c2cc3c(NCc4ccc(F)cc4)ncnc3s2)cc1 tgt="A498 renal" test_result=61.9
compound=Cc1ccc(NSc2ccccc2[N+](=O)[O-])cc1 tgt="A498 renal" test_result=6.22
compound=COC(=O)CNC(=O)C(=O)c1c(O)c(O)c(C(C)C)c2cc(C)c(-c3c(C)cc4c(C(C)C)c(O)c(O)c(C(=O)C(=O)NCC(=O)OC)c4c3O)c(O)c12 tgt="A498 renal" test_result=27.6
compound=COc1cc(-c2ncn(/C=C\c3nnco3)n2)cc(C(F)(F)F)c1 tgt="A498 renal" test_result=-33.9
compound=N#Cc1c(NC(=O)c2cccc(C(F)(F)F)c2)sc2c1CCC(=O)C2 tgt="A498 renal" test_result=94.6
compound="CCN(CC)CC(O)CNc1c2ccc(Cl)cc2nc2ccc(OC)cc12 (stereo not given)" tgt="A498 renal" test_result=43.6
compound=CCOC(=O)c1nnn(-c2ccccc2)c1C1=CN(C)CCC1 tgt="A498 renal" test_result=101
compound="OC(COc1cccc2ccccc12)CN1CCN(c2ccccc2)CC1 (stereo not given)" tgt="A498 renal" test_result=95.5
compound=O=[N+]([O-])c1ccc(-c2cc3c(Nc4ccc(Sc5nc6ccccc6s5)c(Cl)c4)ncnc3s2)cc1 tgt="A498 renal" test_result=-0.884
compound=CCN(CC)S(=O)(=O)c1ccc(O)c(NC(=O)c2[nH]c(C)c(C(C)=O)c2CCc2ccc(Cl)cc2)c1 tgt="A498 renal" test_result=26
compound=CCOC(=O)Cc1csc2nc(-c3ccccc3)nn12 tgt="A498 renal" test_result=90.4
compound=CSc1ncc(C)c(Nc2ccc(Cl)cc2)n1 tgt="A498 renal" test_result=88.5
compound=COc1ccc(-c2cc(-c3cc(OC)ccc3OC)[nH]c(=O)c2C#N)cc1 tgt="A498 renal" test_result=-1.35
compound=COc1cc2c(cc1OC)-c1ccc3cc4c(cc3c1N(CCCN1CCCCC1)C2)OCO4 tgt="A498 renal" test_result=65
compound=COc1cc2c(cc1OC)-c1ccc3cc4c(cc3c1N(CCN1CCCC1)C2)OCO4 tgt="A498 renal" test_result=-2.77
compound=COc1ccc(CN2C(=O)/C(=C\c3cc(OC)c(OC)c(OC)c3)c3ccccc32)cc1 tgt="A498 renal" test_result=52.7
compound=COc1ccc(-c2nc3ccccn3c2/C=C/C(=O)c2cc(OC)c(OC)c(OC)c2)cc1 tgt="A498 renal" test_result=55
compound="CCCCCCN(CCCCCC)CC(O)c1cccc2ccc(Cl)cc12 (stereo not given)" tgt="A498 renal" test_result=67.3
compound=CC(C)(C)Nc1c(-c2c3ccccc3cc3ccccc23)nc2ccccn12 tgt="A498 renal" test_result=88.2
compound="CO/C(=C1/NC(=O)C(Cc2ccc(O)c(Br)c2)N(C)C(=O)C(C)NC(=O)CCC/C=C(\\C)CCC(C)OC1=O)c1ccccc1 (stereo not given)" tgt="A498 renal" test_result=-63.7
compound="C=C(C)[C@@H]1CC[C@]2(CN)CC[C@]3(C)[C@H](CC[C@@H]4[C@@]5(C)CCC(N)[C@@](C)(CO)[C@@H]5CC[C@]43C)[C@@H]12 (stereo not given in full)" tgt="A498 renal" test_result=81.4
compound=CN1CCN(C2=C(Cl)C(=O)c3ccccc3C2=O)CC1 tgt="A498 renal" test_result=88.6
compound=C=C(C=O)[C@@H]1CC=C(C=O)CC1 tgt="A498 renal" test_result=81.7
compound=NC(=O)c1c(NC(=O)c2ccccn2)sc2c1CCC(=O)C2 tgt="A498 renal" test_result=86.1
compound=COc1ccc(-c2nc3ncccn3c2/C=C/C(=O)c2cc(OC)c(OC)c(OC)c2)cc1 tgt="A498 renal" test_result=-20.5
compound=Cc1cccc(-c2cc(O)c(C(=O)N3CCOCC3)s2)c1 tgt="A498 renal" test_result=26.7
compound="COc1ccc(C2CC(c3cnccn3)=NN2)cc1OC (stereo not given)" tgt="A498 renal" test_result=112
compound="O=C1c2ccccc2C2(c3ccc(O)cc3)c3ccccc3Oc3cccc1c32 (stereo not given)" tgt="A498 renal" test_result=47.1
compound=CS(=O)(=O)c1ccc(-c2nc3cc(Cl)ccc3n2CC(=O)N/N=C/c2ccc(Cl)cc2)cc1 tgt="A498 renal" test_result=68.4
compound=CCCCOc1ccc(NC(=O)n2nc(N=NN(C)C)c3ccc(Cl)cc32)cc1 tgt="A498 renal" test_result=100
compound=O=C1NN(C(=O)c2ccc(O)cc2)C(c2ccccc2)=N/C1=C\c1cn(-c2ccccc2)nc1-c1ccccc1 tgt="A498 renal" test_result=88.8
